mortality at 1 µg/mL values for the molecules below.
test system: Sitophilus oryzae; test: Insecticidal activity against 3 to 8 days old Sitophilus oryzae (rice weevil) assessed as mortality at 1 ug/mL measured after 72 hr by fumigation assay; type: functional

{"columns": ["molecule", "mortality at 1 µg/mL / %"],
 "data": [
  ["CC(C)=CCc1c2c(c3occ(-c4ccc(O)cc4)c(=O)c3c1O)C=CC(C)(C)O2 [OSAJIN]", 100],
  ["CC(C)=CCc1c2c(c(O)c3c(=O)c(-c4ccc(O)cc4)coc13)C=CC(C)(C)O2 [WARANGALONE]", 63.4],
  ["CC(C)=CCc1c2c(c(O)c3c(=O)cc(-c4ccc(O)cc4)oc13)C=CC(C)(C)O2 [LAXIFOLIN]", 100],
  ["COc1c(CC=C(C)C)c2c(c3oc(=O)c(-c4ccc(O)cc4)c(O)c13)C=CC(C)(C)O2 [SCANDENIN]", 85.4],
  ["C[C@@H]1O[C@@H](OC[C@H]2O[C@@H](Oc3cc(O)c4c(=O)c(-c5ccc(O)cc5)coc4c3)[C@H](O)[C@@H](O)[C@@H]2O)[C@H](O)[C@H](O)[C@H]1O [SPHAEROBIOSIDE]", 100],
  ["O=c1c(-c2ccc(O)cc2)coc2cc(O)cc(O)c12 [GENISTEIN]", 100],
  ["COc1ccc(-c2c(O)c3c(OC)c(CC=C(C)C)c4c(c3oc2=O)C=CC(C)(C)O4)cc1 [SCANDENIN A]", 75.6],
  ["CC(C)=CCc1cc(-c2coc3cc(O)c(CC=C(C)C)c(O)c3c2=O)ccc1O [LUPALBIGENIN]", 100],
  ["COc1c(CC=C(C)C)c2c(c3occ(-c4ccc(O)cc4)c(=O)c13)C=CC(C)(C)O2 [SCANDINONE]", 100]
]}

----------
test system: Tribolium castaneum; experiment: Insecticidal activity against 3 to 8 days old Tribolium castaneum (red flour beetle) assessed as mortality at 1 ug/mL measured after 24 hr by fumigation assay; assay type: functional
Entries and their mortality at 1 µg/mL values follow.
observation type: mortality at 1 µg/mL (%)

{"columns": ["smiles repr", "reported result"],
 "data": [
  ["CC(C)=CCc1c2c(c(O)c3c(=O)cc(-c4ccc(O)cc4)oc13)C=CC(C)(C)O2", 92.3],
  ["COc1c(CC=C(C)C)c2c(c3occ(-c4ccc(O)cc4)c(=O)c13)C=CC(C)(C)O2", 100],
  ["O=c1c(-c2ccc(O)cc2)coc2cc(O)cc(O)c12", 100],
  ["COc1ccc(-c2c(O)c3c(OC)c(CC=C(C)C)c4c(c3oc2=O)C=CC(C)(C)O4)cc1", 58.2],
  ["COc1c(CC=C(C)C)c2c(c3oc(=O)c(-c4ccc(O)cc4)c(O)c13)C=CC(C)(C)O2", 24.7],
  ["CC(C)=CCc1c2c(c3occ(-c4ccc(O)cc4)c(=O)c3c1O)C=CC(C)(C)O2", 100]
]}

Origin of the recorded values: ChEMBL document CHEMBL3045225
